tgt: recombinant human baculovirus-expressed FGFR1 cytoplasmic domain (Homo sapiens, UniProt P11362)
Construct: recombinant human baculovirus-expressed FGFR1 cytoplasmic domain; host or cells: baculovirus expression system
Sequence (P11362 398-822 limits assumed): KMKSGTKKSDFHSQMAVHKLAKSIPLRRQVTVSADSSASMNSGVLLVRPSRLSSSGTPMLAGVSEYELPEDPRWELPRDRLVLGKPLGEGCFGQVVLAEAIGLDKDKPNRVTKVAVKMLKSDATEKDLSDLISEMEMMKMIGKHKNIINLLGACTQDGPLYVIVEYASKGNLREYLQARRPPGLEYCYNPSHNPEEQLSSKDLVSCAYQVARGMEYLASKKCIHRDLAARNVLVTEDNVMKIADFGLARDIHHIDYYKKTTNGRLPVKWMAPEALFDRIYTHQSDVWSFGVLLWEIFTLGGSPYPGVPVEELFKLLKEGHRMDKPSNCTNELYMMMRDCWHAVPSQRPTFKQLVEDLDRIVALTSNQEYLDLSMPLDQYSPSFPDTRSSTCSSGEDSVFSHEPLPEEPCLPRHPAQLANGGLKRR
measurement-description: FGFR1 kinase inhibition assay (ELISA-based, time-resolved fluorescence)
Format: biochemical
condition-summary: 1 uM compound; 20 μM ATP
quantity-measured: FGFR1 % inhibition @ 1 uM (%)
The response must be a number in % with no trailing unit.

Input line: Look at this molecule and give its reported FGFR1 % inhibition @ 1 uM. O=C1NN=C(c2cc3ccccc3o2)C1=Cc1c[nH]c2ccccc12 [Compound 58]
Output line: 24

Input line: Could you do the same for COC(=O)c1ccc2c(C=C3C(=O)NN=C3c3ccco3)c[nH]c2c1 [Compound 50] , please?
Output line: 20

Input line: Please answer likewise for Cc1nc(C)c(C2=NNC(=O)C2=Cc2c[nH]c3ccccc23)s1 [Compound 13]
Output line: 30

Input line: Thanks! And N#CCCn1cc(C=C2C(=O)NN=C2c2ccco2)c2ccccc21 [Compound 67] ?
Output line: 23

Input line: Would you kindly repeat that for Cc1oc(-c2ccc(Cl)cc2)cc1C1=NNC(=O)C1=Cc1c[nH]c2ccccc12 [Compound 42] ?
Output line: 32

Input line: And O=C1NN=C(c2ccco2)C1=Cc1c[nH]c2ccc(Cl)cc12 [Compound 49] ?
Output line: 39

Input line: Moving on to Cn1ccc(C2=NNC(=O)C2=Cc2c[nH]c3ccc(F)cc23)c1 [Compound 32]
Output line: 4

Input line: And then Cn1cc(C=C2C(=O)NN=C2c2nccs2)c2ccccc21 [Compound 60] , what is it?
Output line: 66

Input line: Similarly, CCOC(=O)CCc1c(C(=O)OCC)[nH]c(C=C2C(=O)NN=C2c2ccoc2)c1CC(=O)OCC [Compound 7] ?
Output line: 28

---

tgt: recombinant human baculoviral VEGFR2 cyctoplasmic domain (Homo sapiens)
Construct: recombinant human baculoviral VEGFR2 cyctoplasmic domain; host or cells: baculovirus expression system
Sequence (P35968 786-1356 limits assumed): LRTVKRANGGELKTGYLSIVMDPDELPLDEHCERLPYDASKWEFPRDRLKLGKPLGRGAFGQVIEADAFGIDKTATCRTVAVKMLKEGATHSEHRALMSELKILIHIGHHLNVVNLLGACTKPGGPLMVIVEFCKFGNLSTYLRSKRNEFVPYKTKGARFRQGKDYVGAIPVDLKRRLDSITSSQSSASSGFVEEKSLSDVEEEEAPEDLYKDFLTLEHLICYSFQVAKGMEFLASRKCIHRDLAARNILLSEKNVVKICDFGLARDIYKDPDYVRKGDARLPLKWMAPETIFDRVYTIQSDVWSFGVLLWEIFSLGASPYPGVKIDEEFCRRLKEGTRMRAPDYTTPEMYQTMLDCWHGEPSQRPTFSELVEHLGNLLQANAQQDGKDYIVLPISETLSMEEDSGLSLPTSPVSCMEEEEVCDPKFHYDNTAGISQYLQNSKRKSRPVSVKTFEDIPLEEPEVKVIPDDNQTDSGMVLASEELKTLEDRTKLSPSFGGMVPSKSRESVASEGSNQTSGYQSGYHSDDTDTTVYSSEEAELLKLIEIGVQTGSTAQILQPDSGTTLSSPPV
measurement-description: VEGFR2 kinase inhibition assay (ELISA-based, time-resolved fluorescence)
Type: biochemical
condition-summary: 1 uM compound; 30 μM ATP; read-out: VEGFR-2 kinase % inhibition @ 1 uM
quantity-measured: inhibition at 1 µM (%)
Give your result in % as a bare value.

Input line: Look up inhibition at 1 µM with recombinant human baculoviral VEGFR2 cyctoplasmic domain (Homo sapiens) for this compound: Cc1cc(C)c(CC2C(=O)NN=C2c2c[nH]c3ccccc23)[nH]1 (stereo not drawn)
Output line: 21

Input line: // repeat for Cc1cc(C)c(C=C2C(=O)NN=C2c2ccco2)[nH]1 and report
Output line: 80

Input line: What do you get for Cc1cc(C)c(C=C2C(=O)NN=C2c2c[nH]c3ccccc23)[nH]1 ?
Output line: 39

---

tgt: baculoviral GST-MLK1KD (Homo sapiens, UniProt P80192)
Construct: 1 μg/ml of baculoviral GST-MLK1KD; GST (N); host or cells: baculovirus expression system
Sequence (P80192 144-412 limits assumed): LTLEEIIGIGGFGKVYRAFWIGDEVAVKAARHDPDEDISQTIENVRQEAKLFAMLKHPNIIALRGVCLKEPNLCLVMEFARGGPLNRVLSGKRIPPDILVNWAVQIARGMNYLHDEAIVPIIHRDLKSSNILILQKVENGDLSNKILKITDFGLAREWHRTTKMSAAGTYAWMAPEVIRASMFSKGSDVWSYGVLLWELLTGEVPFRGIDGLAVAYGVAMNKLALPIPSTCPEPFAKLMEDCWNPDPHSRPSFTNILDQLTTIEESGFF
measurement-description: Mixed Lineage Kinase-1 inhibition assay (Millipore Multiscreen TCA in-plate, 32P)
Format: biochemical
condition-summary: 1 uM compound; 60 μM ATP
Please go through the items and note down their MLK-1 Kinase % inhibition @ 1 uM.
A number alone suffices; assume %.

Input line: Looking for the measured MLK-1 Kinase % inhibition @ 1 uM of O=C1NN=C(c2ccoc2)C1=Cc1ccc[nH]1 [Compound 12] , can you help?
Output line: 27

Input line: Field entry: O=C1NN=C(c2ccco2)C1=Cc1c[nH]c2ccc(OCc3ccccc3)cc12 [Compound 43]
Output line: 13

Input line: And what about the compound Cn1ccc(C2=NNC(=O)C2=Cc2c[nH]c3ccc(Cl)cc23)c1 [Compound 35] ?
Output line: 7

Input line: And Cc1cc(C)c(C=C2C(=O)NN=C2c2cc(-c3ccc(Cl)cc3)oc2C)[nH]1 [Compound 41] ?
Output line: 13

Input line: What do you have for Cc1cc(C)c(C=C2C(=O)NN=C2c2csc3ccccc23)[nH]1 [Compound 39] ?
Output line: 4

Input line: Try this compound next: Cc1cc(C)c(C=C2C(=O)NN=C2c2c(C)coc2C)[nH]1 [Compound 27]
Output line: 6

Input line: Same thing, different compound: N#CCCn1cc(C=C2C(=O)NN=C2c2nccs2)c2ccccc21 [Compound 64]
Output line: 10

Input line: Would you mind doing Cc1cccc2c(C=C3C(=O)NN=C3c3ccn(C)c3)c[nH]c12 [Compound 34] as well?
Output line: 17

Input line: Ok, now Cc1cc(C)c(C=C2C(=O)NN=C2c2ccncc2)[nH]1 [Compound 3]
Output line: 2

Input line: Entry O=C1NN=C(c2ccco2)C1=Cc1cn(Cc2ccccc2)c2ccccc12 [Compound 69] please
Output line: 21

Input line: Entry to check: Cc1cc(C)c(C=C2C(=O)NN=C2c2ccccn2)[nH]1 [Compound 30]
Output line: 2

Input line: Same question for O=C1NN=C(c2ccoc2)C1=Cc1cn(Cc2ccccc2)c2ccccc12 [Compound 68] please.
Output line: 17

Input line: Cc1cc(C)c(C=C2C(=O)NN=C2c2sc(C)nc2C)[nH]1 [Compound 14] ?
Output line: 8

Input line: Field entry: Cc1ccc2c(C=C3C(=O)NN=C3c3ccco3)c[nH]c2c1 [Compound 46]
Output line: 13

Input line: Next compound up: Cn1ccc(C2=NNC(=O)C2=Cc2c[nH]c3cccc(OCc4ccccc4)c23)c1 [Compound 31]
Output line: 27

Input line: Ok, now CC(C)Cn1cc(C=C2C(=O)NN=C2c2nccs2)c2ccccc21 [Compound 73]
Output line: −1

Input line: O=C1NN=C(c2ccoc2)C1=Cc1c[nH]c2cccc(OCc3ccccc3)c12 [Compound 18] ?
Output line: 14

Input line: How about this compound: Cc1cc(C)c(C=C2C(=O)NN=C2c2cccs2)[nH]1 [Compound 61]
Output line: 8

Input line: Can you handle Cc1cc(C)c(C=C2C(=O)NN=C2c2ccn(C)c2)[nH]1 [Compound 23] next?
Output line: 30

Input line: Next record, please: Cc1c(I)[nH]c(C=C2C(=O)NN=C2c2ccoc2)c1I [Compound 6]
Output line: 25

Input line: Let us now turn to Cn1ccc(C2=NNC(=O)C2=Cc2c[nH]c3ccccc23)c1 [Compound 24]
Output line: 10

Input line: Same question, Cc1cc(C)c(C=C2C(=O)NN=C2C2c3ccccc3Oc3ccccc32)[nH]1 [Compound 2] this time
Output line: −8

Input line: Then this compound: Cc1oc(-c2ccc(Cl)cc2)cc1C1=NNC(=O)C1=Cc1c[nH]c2ccccc12 [Compound 42]
Output line: −9

Input line: And then O=C1NN=C(c2nccs2)C1=Cc1cn(CCOCc2ccccc2)c2ccccc12 [Compound 72] , what is it?
Output line: 14

Input line: Thanks! And CN(C)c1ccc(C=C2C(=O)NN=C2c2ccco2)cc1 [Compound 52] ?
Output line: 5

Input line: Next compound: Cc1cc(C)c(C=C2C(=O)NN=C2c2ccoc2)[nH]1 [Compound 1]
Output line: 12

Input line: Now the compound COC(=O)c1ccc2[nH]cc(C=C3C(=O)NN=C3c3ccoc3)c2c1 [Compound 16]
Output line: 18

Input line: Now the compound O=C1NN=C(c2ccoc2)C1=CC=C(c1ccccc1)c1ccccc1 [Compound 4]
Output line: 9

Input line: Can you handle CCc1c(C=C2C(=O)NN=C2c2ccoc2)[nH]c(C(=O)OCc2ccccc2)c1C [Compound 5] next?
Output line: 14

Input line: Now consider O=C1NN=C(c2cc3ccccc3o2)C1=Cc1c[nH]c2ccccc12 [Compound 58] and answer again.
Output line: 44

Input line: Also O=C1NN=C(c2ccoc2)C1=Cc1ncc[nH]1 [Compound 15] , if possible.
Output line: −3

Input line: Proceed to O=C1NN=C(c2ccco2)C1=Cc1c[nH]c2cccc(OCc3ccccc3)c12 [Compound 44]
Output line: 25

Input line: Now the compound Cc1ccc2c(C=C3C(=O)NN=C3c3ccn(C)c3)c[nH]c2c1 [Compound 33]
Output line: 8

Input line: O=C1NN=C(c2ccoc2)C1=Cc1c[nH]c2ccccc12 [Compound 9] ?
Output line: 22

Input line: Lookup O=C1NN=C(c2ccco2)C1=Cc1c[nH]c2ccc(F)cc12 [Compound 48]
Output line: 2

Input line: Now the compound N#CCCn1cc(C=C2C(=O)NN=C2c2cccs2)c2ccccc21 [Compound 66]
Output line: 11

Input line: Ok, now Cc1nc[nH]c1C=C1C(=O)NN=C1c1ccco1 [Compound 53]
Output line: 7

---

tgt: recombinant human baculovirus-expressed VEGFR1 cytoplasmic domain (Homo sapiens, UniProt P17948)
Construct: recombinant human baculovirus-expressed VEGFR1 cytoplasmic domain; host or cells: baculovirus expression system
Sequence (P17948 781-1338 limits assumed): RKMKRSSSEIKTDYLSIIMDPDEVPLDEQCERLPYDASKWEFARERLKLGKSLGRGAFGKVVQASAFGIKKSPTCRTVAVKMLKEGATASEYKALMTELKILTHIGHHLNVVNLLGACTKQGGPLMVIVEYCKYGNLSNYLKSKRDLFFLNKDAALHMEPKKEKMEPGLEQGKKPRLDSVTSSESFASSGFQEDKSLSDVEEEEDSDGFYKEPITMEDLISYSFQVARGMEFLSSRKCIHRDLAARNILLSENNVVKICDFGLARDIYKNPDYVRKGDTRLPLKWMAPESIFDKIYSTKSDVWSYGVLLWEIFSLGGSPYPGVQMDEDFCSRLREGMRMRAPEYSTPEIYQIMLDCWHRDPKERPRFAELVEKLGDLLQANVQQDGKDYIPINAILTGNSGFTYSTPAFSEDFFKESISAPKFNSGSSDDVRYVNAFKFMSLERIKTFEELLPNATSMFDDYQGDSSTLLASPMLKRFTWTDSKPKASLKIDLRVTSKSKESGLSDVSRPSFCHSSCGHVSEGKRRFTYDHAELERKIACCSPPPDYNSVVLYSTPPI
measurement-description: VEGFR1 kinase inhibition assay (ELISA-based, time-resolved fluorescence)
Assay type: biochemical
condition-summary: 1 uM compound; 30 μM ATP
quantity-measured: VEGFR-1 kinase % inhibition @ 1 uM
The reply must contain the numeric value and, after it, the unit.

Input line: Name the recorded VEGFR-1 kinase % inhibition @ 1 uM for CN(C)c1ccc(C=C2C(=O)NN=C2c2ccco2)cc1 [Compound 52] .
Output line: 0%

Input line: Another compound to look at: Cc1cc(C)c(C=C2C(=O)NN=C2c2csc3ccccc23)[nH]1 [Compound 39]
Output line: 4%

Input line: Entry to check: Cn1cccc1C1=NNC(=O)C1=Cc1c[nH]c2ccc(F)cc12 [Compound 56]
Output line: 5%

Input line: Now consider Cc1cccc2c(C=C3C(=O)NN=C3c3ccn(C)c3)c[nH]c12 [Compound 34] .
Output line: 30%

Input line: Proceed to Cc1cc(C)c(C=C2C(=O)NN=C2c2c(C)coc2C)[nH]1 [Compound 27]
Output line: 11%

Input line: Could you do the same for O=C1NN=C(c2nccs2)C1=Cc1cn(Cc2ccccc2)c2ccccc12 [Compound 70] , please?
Output line: 1%

Input line: Cool, now Cc1cc(C)c(C=C2C(=O)NN=C2c2cccnc2)[nH]1 [Compound 10]
Output line: 41%

Input line: Item: Cc1c(I)[nH]c(C=C2C(=O)NN=C2c2ccoc2)c1I [Compound 6]
Output line: 14%

Input line: Try this compound next: Cn1ccc(C2=NNC(=O)C2=Cc2c[nH]c3cccc(OCc4ccccc4)c23)c1 [Compound 31]
Output line: 10%

Input line: Then this compound: O=C1NN=C(c2ccoc2)C1=Cc1c[nH]c2ccc(OCc3ccccc3)cc12 [Compound 21]
Output line: 0%

Input line: Another compound to look at: O=C1NN=C(c2ccoc2)C1=Cc1ncc[nH]1 [Compound 15]
Output line: 12%

Input line: Then this compound: O=C1NN=C(c2cc3ccccc3o2)C1=Cc1c[nH]c2ccccc12 [Compound 58]
Output line: 51%

Input line: Same question for Cn1cc(C=C2C(=O)NN=C2c2ccco2)c2ccccc21 [Compound 45] please.
Output line: 46%

Input line: Check O=C1NN=C(c2ccco2)C1=Cc1cn(Cc2ccccc2)c2ccccc12 [Compound 69] too.
Output line: 5%

Input line: What do you have for O=C1NN=C(c2cccs2)C1=Cc1c[nH]c2ccccc12 [Compound 62] ?
Output line: 38%

Input line: And Cc1nc[nH]c1C=C1C(=O)NN=C1c1ccco1 [Compound 53] ?
Output line: 21%

Sourced from patent US6831075B2
